System: Tov-21-G
Assay: Primary qHTS to identify gynecologic anti-cancer compounds using libraries of approved drugs and bioactive compounds (AID 1345084); also: nearly all actives have a fitted effect of over 55% in size
Conditions: Gynecologic cancer cell panel viability, ATPlite luminescence, 48 h; series mostly up to 57.5 µM
Results filed as inconclusive are left out. The source made the active and inactive calls. Calls follow the shape of the dose curve; as a rule, active = well fitted cell-killing curve with a large enough effect; inconclusive = small, poorly fitted or top-dose-only effect, or effect the other way; inactive = flat fitted curve, though single readings scatter.
Choose one outcome from this list and give only that: active, inactive

Hi team, can someone confirm the assay call for CC(=O)C1=CCC2C3CCC4CC(O[C@@H]5O[C@H](CO)[C@@H](O[C@@H]6O[C@@H](C)[C@H](O)[C@@H](O)[C@H]6O)[C@H](O)[C@H]5O[C@@H]5O[C@H](CO)[C@@H](O)[C@H](O)[C@H]5O)CCC4(C)C3CCC12C (some centres not stated) ?
inactive

Assay outcome for C=C1C[C@]23C[C@H]1CC[C@H]2[C@]1(C)CCC[C@@](C)(C(=O)O)[C@H]1[C@@H]3C(=O)O : what was it?
inactive

Source: PubChem BioAssay (NCATS)
